- testTarget: CYP2D6 (Homo sapiens)
- Construct: host or cells: insect cells infected with recombinant baculovirus (microsomes)
- Sequence (P10635 whole entry): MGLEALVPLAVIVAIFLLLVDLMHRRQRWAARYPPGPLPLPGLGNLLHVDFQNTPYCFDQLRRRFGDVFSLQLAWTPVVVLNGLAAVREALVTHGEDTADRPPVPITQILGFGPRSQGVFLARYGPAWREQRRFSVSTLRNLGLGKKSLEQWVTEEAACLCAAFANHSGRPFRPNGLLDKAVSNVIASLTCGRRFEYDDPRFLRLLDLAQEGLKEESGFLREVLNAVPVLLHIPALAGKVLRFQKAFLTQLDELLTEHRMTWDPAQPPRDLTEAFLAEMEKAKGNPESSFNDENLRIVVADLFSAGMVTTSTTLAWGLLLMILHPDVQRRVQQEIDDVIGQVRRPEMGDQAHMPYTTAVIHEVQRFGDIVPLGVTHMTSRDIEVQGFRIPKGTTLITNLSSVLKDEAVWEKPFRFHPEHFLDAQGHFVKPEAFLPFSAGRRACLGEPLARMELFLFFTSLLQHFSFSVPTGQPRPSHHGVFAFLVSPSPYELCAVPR
- assayOverview: Cytochrome profiling CYP2D6 (baculosomes)
- Assay type: in vitro ADME
- experimentalConditions: probe fluorogenic probe substrate (not named), 10 μM substrate
measurementType: inhibition at 60 min, 1 μM (%)
The answer is to be given in %; state only the numeric part.

INSERT INTO measurements (compound, testtarget, measurementtype, readoutvalue) VALUES
  ('COc1ccc(Cl)c(C(=O)NCC23CC4CC(CC(F)(C4)C2)C3)c1 [Compound 3]', 'CYP2D6 (Homo sapiens)', 'inhibition at 60 min, 1 μM', -28.9),
  ('COc1ccc(Cl)c(C(=O)NCC23CC4CC(F)(CC(F)(C4)C2)C3)c1 [Compound 2]', 'CYP2D6 (Homo sapiens)', 'inhibition at 60 min, 1 μM', -25.3),
  ('COc1ccc(Cl)c(C(=O)NCC23CC4CC(CC(C4)C2)C3)c1 [Compound 31, reference compound]', 'CYP2D6 (Homo sapiens)', 'inhibition at 60 min, 1 μM', -47.3);

Shift focus to the following entry.
Record lookup: for CYP2D6 (Homo sapiens), what inhibition at 60 min, 1 μM belongs to COc1ccc(Cl)c(C(=O)NCC23CC4(F)CC(F)(CC(F)(C4)C2)C3)c1 [Compound 1] ?
-29.1
